experiment: Acute toxicity (LD50), intraperitoneal, mice; details: mouse, in vivo, ip
Measured LD50, listed per entry for reference.

Requested field: LD50. Item: COC(=O)C1(C)Nc2c(O)cc3c(c2C1=O)C(CCl)CN3C(=O)c1cc2cc(OC)c(OC)c(OC)c2[nH]1 (stereo not drawn)
~3.83 mg/kg

Requested field: LD50. Item: COC(=O)C1(C)Nc2c(O)cc3c(c2C1=O)CC(Br)CN3C(=O)c1cc2cc(OC)c(OC)c(OC)c2[nH]1 (stereo not drawn)
~0.37 mg/kg

// next entry
Requested field: LD50. Item: COC(=O)C1(C)Nc2c(O)cc3c(c2C1=O)C(CBr)CN3C(=O)c1cc2cc(OC)c(OC)c(OC)c2[nH]1 (stereo not drawn)
~0.28 mg/kg
